I'd appreciate it if you could supply activity change values for the items below.
test: qHTS for Inhibitors of Inflammasome Signaling: IL-1-beta AlphaLISA Primary Screen; conditions: THP-1 LPS/ATP IL-1B secretion, 16 h; at 57.5 µM, stronger effect = lower value; note: % is set by controls: 0 for no effect and ±100 for the full control effect
Among all 360,000 compounds or so, about 17,000 (4.7%) were called active. Inconclusive results (about 5%) are left out. Only a selection was taken, and actives are over-represented in it overall.

Field: example entries. Status: answers known.
molecule	assay_value
COc1cc(Cl)ccc1OCc1cc(C(=O)N2CC[C@@H]3CCCC[C@H]3C2)no1	-82.6% (active)
COC(=O)c1ccc(COC(=O)c2cnc(Cl)c(Cl)c2)cc1	-13.4% (inactive)
CC(=O)Nc1ccc2nc(NC(=O)CS(=O)(=O)c3ccc(F)cc3)sc2c1	2.42% (inactive)

List activity change for every entry below, keeping the order given.
1. CC(c1ccccn1)N(CCN(C)C)C(=S)Nc1ccccc1F (stereo not drawn)
2. Fc1ccc(-c2ccc(NCCN3CCOCC3)nn2)cc1
3. COc1ccc(Oc2c(Cl)cnn(-c3ccccc3)c2=O)cc1
4. CN1CCN(c2ccncc2S(=O)(=O)N2CCCC2)CC1
5. CCOC(=O)c1c(NC(=S)SC)sc(C(=O)N2CCc3ccccc3C2)c1C
6. CCOC(=O)/C(C#N)=C/c1cn(CCC(=O)O)nc1-c1ccc(Br)cc1

["0% (inactive)", "-8.39% (inactive)", "-118% (active)", "21.6% (inactive)", "1.46% (inactive)", "0% (inactive)"]

----------
assay: qHTS for Inhibitors of Inflammasome Signaling: IL-1-beta AlphaLISA Primary Screen; details: THP-1 LPS/ATP IL-1B secretion, 16 h; at 57.5 µM, stronger effect = lower value
Screen size: about 360,000 compounds; about 17,000 (4.7%) were called active. Inconclusive results (about 5%) are left out. What follows is part of a selection rich in actives, with near analogues and random picks from the rest.
measured_quantity: activity change (%)
Answers are plain numbers, in %.

compound	activity change, %
Cc1cccc(S(=O)(=O)N(C)C[C@@H]2OCc3cnnn3CCCC(=O)N([C@H](C)CO)C[C@@H]2C)c1	-0.819
Cc1ccc(-c2nc(C)sc2CC(=O)OCC(=O)Nc2c(F)cccc2F)cc1	8.31
O=C(CSc1c2c(nc3ccc(Cl)cc13)CCCC2)NCc1ccco1	-92.7
O=S(=O)(c1ccc(Br)cc1)c1nc(-c2ccccc2)oc1NCc1cccnc1	-18.2

Give activity change for each of the items listed below.
1. CC1CN(Cc2ccco2)C(=S)N(c2ccccc2)C1=O (configuration not stated)
2. CN(Cc1ccccc1)C(=O)[C@@H]1CCCN1C(=O)[C@@H]1CCCN1C(=O)c1c(F)cccc1F
3. COc1ccc(CN(C)C(=O)Cc2c[nH]c3ccccc23)c(OC)c1OC
4. O=C(/C=C/c1ccc(Cl)cc1Cl)NCc1ccco1
5. COc1ccc(C(=O)Nc2ccc3nc(N4CCCCC4)cc(C)c3c2)cc1OC
6. O=C(COC(=O)c1ccncc1)Nc1ccc2c(c1)OCO2
7. C=CCn1nc(C(=O)OCC)cc1-c1sc(NC(=O)c2ccccc2)nc1C
8. COc1ccc(C(CCN(Cc2ccc(OC)c(OC)c2)C(=O)CCl)c2ccccc2)cc1 (configuration not stated)

3.29
32.8
5.58
-10.5
30.7
7.7
-29.6
-101

Hello, I would appreciate it if you could give activity change for each entry below.
1. Cc1nc(-c2ccc([N+](=O)[O-])cc2)c(-c2ccccc2)o1
2. COc1ccc(-c2cc(C(=O)N(C)Cc3ccc(OC)c(OC)c3OC)c3ccccc3n2)cc1OC
3. CC(=O)NC(C)(C)C1CC=C(C)/C(=N\O)C1 (configuration not stated)
4. COCCCNCC(=O)Nc1sc(C)c(C)c1C(=O)OC

1. -1.34
2. -13.9
3. 3.35
4. 0.516

Can you give me activity change for all of these, one by one?
1. COc1cccc(NC(=O)CN(C)C(=O)c2cc(Cl)nc3ccccc23)c1
2. NS(=O)(=O)c1ccc(NC(=O)COC(=O)c2c3c(nc4ccccc24)/C(=C\c2ccc4c(c2)OCO4)CCC3)cc1
3. CCC(=O)NCc1cc(-c2nn(C)c(=O)c3ccccc23)ccc1OC
4. COc1ccc(N2CCN(C3CCCCC3NS(=O)(=O)c3ccccc3)CC2)cc1 (configuration not stated)

17.2
-62.6
-12.6
-0.438

# return activity change for each item in the list
1. CC[C@]12c3[nH]c4ccc(OC)cc4c3CCN1C(=O)C(CC(=O)NCc1ccco1)C[C@@H]2C(=O)N1CCN(C(=O)C2CC2)CC1 (some centres not stated)
2. COc1cc(C(=O)NCC2(c3ccccc3)CCCC2)ccc1OC(C)C
3. COc1cccc(OCC(=O)NCCS(=O)(=O)N2CCN(c3ccccc3)CC2)c1

[16.2, -0.814, 21]

Please look at the items below and tell me activity change for each one, in order.
1. CCCCN1C[C@H](c2ccc(Br)cc2)[C@@H](CC(=O)Nc2ccc(Br)cc2)C1=O
2. CCCCCc1c(-c2cccc(Br)c2)ncn1CCc1ccccc1OC
3. CN(c1ccccc1)S(=O)(=O)c1ccc(C(=O)NCc2cccnc2)cc1
4. COc1ccc(C(=O)Nc2ccc(C3(C#N)CCCC3)cc2)cc1OC
5. CCCCCc1c(-c2ccc(OC)c(OC)c2)ncn1CCc1ccccc1OC
6. CCC(=O)OCc1c(C(F)(F)F)nn(C)c1Oc1cccc(C(F)(F)F)c1

1: -5.58; 2: -27.9; 3: 12; 4: -55; 5: -71.5; 6: 2.89

Could you tell me activity change for each of these compounds? They are listed below.
1. Cc1ccccc1S(=O)(=O)NC(=O)C1(C)CCN1C(=O)Cc1ccc(Cl)cc1Cl (configuration not stated)
2. O=[N+]([O-])c1ccc(N2CCOCC2)cc1

-18.4
-12

Dear colleague, could you please provide activity change for the compounds listed below?
1. COc1ccc(NC(=O)COC(=O)C2COc3ccccc3O2)cc1 (configuration not stated)
2. CCCOc1ccc(F)cc1-c1cc(C(=O)Nc2ccc(F)c(Cl)c2)[nH]n1
3. CCCc1c(-c2ccccc2F)ncn1Cc1ccccc1OC
4. CCc1c(-c2ccc(F)cc2)ncn1Cc1cccc(-c2ccccc2)c1

1: 8.76; 2: -11.9; 3: -24.5; 4: 4.55

Please state, for each entry, its recorded activity change.
1. CCOCCCNC(=O)C(NC(=O)Cc1c[nH]c2ccccc12)c1ccc(OC)cc1 (configuration not stated)
2. COc1ccc(CN(C)C(=O)c2cc(-c3ccc(C)cc3C)nc3ccccc23)c(OC)c1OC
3. CC1Sc2ccc(S(=O)(=O)CCC(=O)NCc3ccccc3Cl)cc2NC1=O (configuration not stated)
4. CC1CCCC(NC(=O)COC(=O)c2ccccc2C(=O)N(C)C2CCCCC2)C1C (configuration not stated)

10.6
-84.9
18.9
-16.9

----------
experiment: qHTS for Inhibitors of Inflammasome Signaling: IL-1-beta AlphaLISA Primary Screen; conditions: THP-1 LPS/ATP IL-1B secretion, 16 h; at 57.5 µM, stronger effect = lower value
About 17,000 (4.7%) of roughly 360,000 compounds were called active. Inconclusive results (about 5%) are left out. For the sample, actives were picked, then their nearest neighbours and some compounds at random.
measured_quantity: activity change

Examples with their reported activity change follow.
molecule	activity change
CC(=O)c1c(C)n(-c2ccc(C)cc2)c2ccc(O)cc12	12.1% (inactive)
COCCCN(C(=S)Nc1c(C)cc(C)cc1C)C(C)c1ccncc1 (stereo not given)	0% (inactive)
COc1cccc(/C=C2/SC(=S)N(CC(=O)NC3C=CS(=O)(=O)C3)C2=O)c1 (stereo not given)	-11% (inactive)
O=C(CN1C(=O)S/C(=C\c2ccccc2Cl)C1=O)NC1C=CS(=O)(=O)C1 (stereo not given)	-99.6% (active)

Fill in reported activity change for this entry: `CCOC(=O)c1c(CN2CCOCC2)n(-c2ccccc2)c2ccc(O)cc12` -54.1% (active)

----------
assay: qHTS for Inhibitors of Inflammasome Signaling: IL-1-beta AlphaLISA Primary Screen; details: THP-1 LPS/ATP IL-1B secretion, 16 h; at 57.5 µM, stronger effect = lower value
Out of some 360,000 compounds screened, about 17,000 (4.7%) were called active. Roughly 5% stayed inconclusive and do not appear here. The list comes from a sample in which actives are over-represented; it also holds close analogues and randomly drawn compounds.
For each of the compounds below, state its activity change.
Give bare numbers, in %.

Below, each entry is followed by its recorded activity change result.
compound	measured_quantity	measurement_units	assay_value
CC(=O)NCC(O)c1ccc([N+](=O)[O-])cc1 (centres undefined)	activity change	%	0.816
O=C(/C=C/c1ccc([N+](=O)[O-])o1)NNC(=O)c1ccc(F)cc1	activity change	%	-102
COc1cc2c(cc1OC)CN(C(=O)c1ccc(S(=O)(=O)N3CCCCCC3)cc1)CC2	activity change	%	-4.82

Okay, now this compound:
Quote activity change reported for `CC(=C/c1ccccc1)/C=N/NC(=O)c1cc(C)oc1C` please. -1.83
